Data provenance is patent US10357481B2.

Provide the recorded Ki for the entries that follow.
Target: human PDE2A1 (Homo sapiens)
Construct: GST; purchased BPS Bioscience (San Diego, Calif.) 60020; host or cells: insect cells
Experiment: IMAP FP PDE selectivity panel, human PDE2A1
Assay type: biochemical
Details: Lab B; read-out: Human PDE2 Ki (nM) Lab B

Here's what some known entries look like.
Molecule | Ki
CC(C)c1cc(NC(c2ccc(OC(F)(F)F)cc2F)C(C)(C)O)n2ncnc2n1 (single isomer, unassigned) [Example 136] | > 2960 nM
Cc1cc(NC(c2ccc3c(c2)OC(F)(F)O3)C(C)(C)O)n2ncnc2n1 (single isomer, unassigned) [Example 112] | > 2960 nM
Cc1cc(NC(c2ccc(C(F)(F)F)cc2Cl)C(C)(C)O)n2ncnc2n1 (single isomer, unassigned) [Example 104] | ~2780 nM

Okay, now this molecule:
# input Give reported Ki value for CC(C)(O)C(Nc1cc(C(F)F)nc2ncnn12)c1ccc(OC(F)F)c(F)c1 (single isomer, unassigned) [Example 190]
# output > 2960 nM

* * *

Provide the recorded Ki for the entries that follow.
Biological target: human PDE2A1 (Homo sapiens, UniProt O00408)
Construct: GST; purchased BPS Bioscience (San Diego, Calif.) 60020; host or cells: insect cells
Sequence (O00408 1-920 isoform O00408-2): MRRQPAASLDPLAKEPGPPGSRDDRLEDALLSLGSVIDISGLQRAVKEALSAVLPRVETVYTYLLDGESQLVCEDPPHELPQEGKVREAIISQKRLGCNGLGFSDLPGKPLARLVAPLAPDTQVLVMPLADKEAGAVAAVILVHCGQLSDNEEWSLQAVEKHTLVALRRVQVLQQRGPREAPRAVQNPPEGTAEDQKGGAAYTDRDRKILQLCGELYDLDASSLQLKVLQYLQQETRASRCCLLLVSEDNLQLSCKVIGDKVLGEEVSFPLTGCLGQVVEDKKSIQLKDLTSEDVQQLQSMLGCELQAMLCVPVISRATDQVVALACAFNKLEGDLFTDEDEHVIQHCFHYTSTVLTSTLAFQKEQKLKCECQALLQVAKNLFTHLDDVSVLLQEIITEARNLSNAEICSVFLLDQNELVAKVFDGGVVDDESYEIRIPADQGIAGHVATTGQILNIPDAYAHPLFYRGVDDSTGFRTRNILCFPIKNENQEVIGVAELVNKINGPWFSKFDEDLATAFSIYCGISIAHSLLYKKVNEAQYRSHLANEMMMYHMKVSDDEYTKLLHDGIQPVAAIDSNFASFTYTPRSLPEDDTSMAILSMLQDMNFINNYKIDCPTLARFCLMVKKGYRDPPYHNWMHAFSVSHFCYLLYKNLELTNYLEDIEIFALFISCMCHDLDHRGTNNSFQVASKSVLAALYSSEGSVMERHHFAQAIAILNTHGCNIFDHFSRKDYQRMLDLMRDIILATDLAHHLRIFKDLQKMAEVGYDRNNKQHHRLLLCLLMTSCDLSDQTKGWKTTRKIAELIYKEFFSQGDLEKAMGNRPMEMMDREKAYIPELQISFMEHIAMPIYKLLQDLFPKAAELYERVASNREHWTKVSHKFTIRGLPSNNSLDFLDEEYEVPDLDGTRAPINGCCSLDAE
Experiment: IMAP FP PDE selectivity panel, human PDE2A1
Assay type: biochemical
Conditions: Lab B; read-out: Human PDE2 Ki (nM) Lab B

Here's what some known entries look like.
Compound | Ki
CC(C)c1cc(NC(c2ccc(OC(F)(F)F)c(F)c2)C(C)(C)O)n2ncnc2n1 (single isomer, unassigned) [Example 138] | ~1570 nM
Cc1cc(N[C@@H](C)c2ccc(C(F)(F)F)cc2)n2ncnc2n1 [Example 2] | ~1540 nM

Okay, now this compound:
# input Give reported Ki value for CCC(O)(CC)C(Nc1cc(C(F)(F)F)nc2ncnn12)c1ccc(C(F)(F)F)c(F)c1 (single isomer, unassigned) [Example 220]
# output ~2110 nM

* * *

Target: human PDE2A1 (Homo sapiens)
Construct: GST; purchased BPS Bioscience (San Diego, Calif.) 60020; host or cells: insect cells
Experiment: IMAP FP PDE selectivity panel, human PDE2A1
Assay type: biochemical
Conditions: Lab B; read-out: Human PDE2 Ki (nM) Lab B
Endpoint Label: Ki

Here's what some known entries look like.
Molecule | Ki
COCC(Nc1cc(C(F)(F)F)nc2ncnn12)c1ccc(C(F)(F)F)c(F)c1 (single isomer, unassigned) [Example 218] | > 2960 nM
Cc1cc(NC(c2ccc(OC(F)F)cc2)C(C)(C)O)n2ncnc2n1 (single isomer, unassigned) [Example 110] | > 2960 nM
Cc1cc(NC(c2ccc(OC(F)(F)F)cc2C)C(C)(C)O)n2ncnc2n1 (single isomer, unassigned) [Example 128] | > 2960 nM
Cc1cc(NC(c2ccc(S(F)(F)(F)(F)F)cc2)C(C)(C)O)n2ncnc2n1 (single isomer, unassigned) | > 2960 nM

I would be grateful if you could provide Ki for each of the following entries.
1. CC(C)(O)C(Nc1cc(C(F)F)nc2ncnn12)c1ccc(OC(F)F)cc1F (single isomer, unassigned) [Example 182]
2. Cc1cc(N(C)C(c2ccc(OC(F)(F)F)c(F)c2)C(C)(C)O)n2ncnc2n1 (single isomer, unassigned) [Example 248]
3. CC(C)(O)C(Nc1cc(C(F)(F)F)nc2ncnn12)c1ccc(CC(F)(F)F)cc1 (single isomer, unassigned) [Example 170]
4. CC(C)(O)C(Nc1cc(C(F)(F)F)nc2ncnn12)c1ccc(C(F)(F)F)cc1F (single isomer, unassigned) [Example 173]
5. Cc1cc(NC2(c3cccc(C(F)(F)F)c3F)COC2)n2ncnc2n1
6. CC(C)(O)C(Nc1cc(C(F)(F)F)nc2ncnn12)c1ccc2c(c1)OC(F)(F)O2 (single isomer, unassigned) [Example 168]
7. CC(C)(N)C(Nc1cc(C(F)(F)F)nc2ncnn12)c1ccc(C(F)(F)F)c(F)c1 (single isomer, unassigned) [Example 254]
8. Cc1cc(NC(c2ccc(-c3ccccc3)cc2)C(C)(C)O)n2ncnc2n1 (single isomer, unassigned) [Example 126]

# output
1: > 2960 nM; 2: > 2960 nM; 3: > 2960 nM; 4: > 2960 nM; 5: > 2960 nM; 6: > 2960 nM; 7: > 2960 nM; 8: > 2960 nM

* * *

Target: human PDE2A1 (Homo sapiens, UniProt O00408)
Construct: GST; purchased BPS Bioscience (San Diego, Calif.) 60020; host or cells: insect cells
Assay: IMAP FP PDE selectivity panel, human PDE2A1
Assay type: biochemical
Conditions: Lab B; read-out: Human PDE2 Ki (nM) Lab B
Endpoint Label: Ki (nM)
One number for each entry, in nM.

Structure Smiles String | Unit Of Measure | Ki
CC(C)(C)[C@@H](Nc1cc(CO)nc2ncnn12)c1ccc(C(F)(F)F)c(F)c1 | nM | 208
CC(C)(O)[C@@H](Nc1cncc2ncnn12)c1ccc(C(F)(F)F)cc1 | nM | 150

Okay, now this molecule:
# input Give reported Ki value for Cc1cc(N[C@@H](c2ccc(OC(F)(F)F)cc2)C(C)(C)C)n2ncnc2n1
# output 6.6

* * *

Provide the recorded Ki for the entries that follow.
Molecular target: human PDE2A1 (Homo sapiens, UniProt O00408)
Construct: GST; purchased BPS Bioscience (San Diego, Calif.) 60020; host or cells: insect cells
Experiment: IMAP FP PDE selectivity panel, human PDE2A1
Type: biochemical
Conditions: Lab B; read-out: Human PDE2 Ki (nM) Lab B
Description: Selectivity for PDE2, as compared to other PDE families, was assessed using the IMAP® technology. Human PDE10A2 enzyme was prepared from cytosolic fractions of transiently transfected HEK cells. Assays for PDE 1 through 11 were performed in parallel at room temperature in 384-well microtiter plates with an incubation volume of 20.2 μL. […] The intrinsic PDE2 inhibitory activity of a compound which may be used in accordance with the present invention may be determined by these assays.

Here's what some known entries look like.
Compound | Ki
CC(C)(C)c1cc(NC(c2ccc(OC(F)(F)F)cc2F)C(C)(C)O)n2ncnc2n1 (single isomer, unassigned) [Example 149] | > 2960 nM
CC(C)(O)C(Nc1cc(C(F)(F)F)nc2ncnn12)c1ccc(C(F)F)cc1 (single isomer, unassigned) [Example 164] | > 2960 nM
CC(C)(O)C(Nc1cc(C(F)(F)F)nc2ncnn12)c1ccc(C(F)(F)F)cc1Cl (single isomer, unassigned) [Example 159] | > 2960 nM

I would be grateful if you could provide Ki for each of the following entries.
1. Cc1nc2ncnn2c(N[C@H](C)c2ccc(C(F)(F)F)cc2)c1C [Example 85]
2. Cc1cc(N[C@H](c2ccc(OC(F)(F)F)c(F)c2)C(C)(C)O)n2ncnc2n1 (single isomer, unassigned) [Example 91]
3. Cc1cc(N[C@@H](c2ccc(C(F)(F)F)c(F)c2)C(C)(C)O)nc2ncnn12 (single isomer, unassigned) [Example 292]
4. CC(C)(C)c1cc(NC(c2ccc(OC(F)(F)F)c(F)c2)C(C)(C)O)n2ncnc2n1 (single isomer, unassigned) [Example 147]

# output
1. ~1160 nM
2. > 2960 nM
3. > 2960 nM
4. > 2960 nM

I would be grateful if you could provide Ki for each of the following entries.
1. CC(C)(O)C(Nc1cc(C(F)F)nc2ncnn12)c1ccc(C(F)(F)F)c(F)c1 (single isomer, unassigned) [Example 228]
2. COCc1cc(N[C@H](C)c2ccc(C(F)(F)F)c(F)c2)n2ncnc2n1 [Example 77]

# output
1. > 2960 nM
2. ~1180 nM

* * *

Target: human PDE2A1 (Homo sapiens, UniProt O00408)
Construct: GST; purchased BPS Bioscience (San Diego, Calif.) 60020; host or cells: insect cells
Assay: IMAP FP PDE selectivity panel, human PDE2A1
Type: biochemical
Conditions: Lab B; read-out: Human PDE2 Ki (nM) Lab B
Endpoint Label: Ki

Here's what some known entries look like.
Compound | Endpoint Label | Result
CC(C)(O)C(Nc1cc(C2CC2)nc2ncnn12)c1ccc(OC(F)(F)F)c(F)c1 (single isomer, unassigned) [Example 140] | Ki | > 2960 nM
Cc1cc(NC(c2ccc(C3(C)CC3)cc2)C(C)(C)O)n2ncnc2n1 (single isomer, unassigned) [Example 120] | Ki | > 2960 nM

Okay, now this compound:
# input Give reported Ki value for CC(C)(O)C(Nc1cc(C(F)(F)F)nc2ncnn12)c1ccc(SC(F)(F)F)cc1 (single isomer, unassigned) [Example 221]
# output > 2960 nM

* * *

Target: human PDE2A1 (Homo sapiens, UniProt O00408)
Construct: GST; purchased BPS Bioscience (San Diego, Calif.) 60020; host or cells: insect cells
Experiment: IMAP FP PDE selectivity panel, human PDE2A1
Assay type: biochemical
Conditions: Lab B; read-out: Human PDE2 Ki (nM) Lab B
Ki under 20 nM gets met, anything at or over 20 nM gets not met.

For orientation, consider the following solved cases.
Compound | Classification
CC[C@@H](Nc1cc(C)nc2ncnn12)c1ccc(SC(F)(F)F)c(F)c1 [Example 18] | met
Cc1cc(N[C@@H](c2ccc(C(F)(F)F)c(F)c2)C(C)(C)C)n2nc(CCCO)nc2n1 [Example 249] | not met
CC(C)(C)c1cc(NC(c2ccc(S(F)(F)(F)(F)F)cc2)C(C)(C)O)n2ncnc2n1 (single isomer, unassigned) [Example 151] | not met
COCC(Nc1cc(C)nc2ncnn12)c1ccc(C(F)(F)F)c(F)c1 (single isomer, unassigned) [Example 209] | not met
Cc1cc(N[C@@H](c2ccc(C(F)(F)F)c(F)c2)C(C)(C)C)n2ncnc2c1 [Example 264] | not met
Cc1cc(N[C@@H](c2ccc(OC(F)(F)F)c(F)c2)C(C)(C)C)n2ncnc2n1 [Example 28] | met
COc1cc(N[C@@H](c2ccc(C(F)(F)F)c(F)c2)C(C)(C)C)n2ncnc2n1 [Example 233] | not met
C[C@H](Nc1cncc2ncnn12)c1ccc(C(F)(F)F)cc1 [Example 289] | not met

# input Check if Ki falls below 20 nM for COc1cc(N[C@H](c2ccc(C(F)(F)F)c(F)c2)C(C)(C)O)n2ncnc2n1 (single isomer, unassigned) [Example 236] .
# output not met

# input Check if Ki falls below 20 nM for Cc1cc(N[C@@H](c2ccc(C(F)(F)F)cc2)C(C)(C)O)n2ncnc2n1 [Example 94] .
# output met

# input Check if Ki falls below 20 nM for CN(C)c1cc(N[C@H](c2ccc(C(F)(F)F)c(F)c2)C(C)(C)O)n2ncnc2n1 (single isomer, unassigned) [Example 243] .
# output not met

# input Check if Ki falls below 20 nM for Cc1cc(OC2(c3ccc(C(F)(F)F)cc3)CC2)n2ncnc2n1 [Example 262] .
# output not met

# input Check if Ki falls below 20 nM for CN(C)c1cc(NC2(c3ccc(C(F)(F)F)c(F)c3)CC2)n2ncnc2n1 [Example 239] .
# output met

# input Check if Ki falls below 20 nM for Cc1cc(N[C@@H](c2ccc(OC(F)(F)F)c(Cl)c2)C(C)(C)O)n2ncnc2n1 [Example 102] .
# output met

# input Check if Ki falls below 20 nM for Cc1cc(O[C@H](c2ccc(C(F)(F)F)cc2)C(C)(C)C)n2ncnc2n1 (single isomer, unassigned) [Example 261] .
# output not met
